ASSAY_PROCEDURE: chemical genetic growth profiling, strain panel (AID 1159580);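 further: tested at 20 µM; growth read once vehicle control cultures reached saturation at 30 °C; 1 = growth at the plate median or of vehicle wells; lower values mean less growth of the strain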
EXPERIMENTAL_CONDITIONS: S. cerevisiae deletion strains, growth OD, locus YNL207W, strain RIO2, stronger effect = lower value
Out of some 5,500 compounds screened, about 2,000 (36%) were called active. Inconclusive results (about 18%) are left out. The list shows a part of the results.
The following molecules are listed with their measured normalized growth values.

>  <SMI>
Cc1noc(C)c1S(=O)(=O)Nc1csc(C(F)(F)F)c1-c1ccccc1

>  <normalized growth>
0.978

$$$$
>  <SMI>
O=c1oc2ccccc2cc1[N+](=O)[O-]

>  <normalized growth>
0.0939

$$$$
>  <SMI>
CNC(=O)Sc1c(-c2ccc(Cl)cc2)nn(C(=O)NC)c1SC

>  <normalized growth>
0.964

$$$$
>  <SMI>
N#CC(C#N)=Cc1c(-c2ccccc2Cl)[nH]c2ccccc12

>  <normalized growth>
0.974

$$$$
>  <SMI>
C[C@@H](Nc1ncnc2sc3c(c12)CCCC3)c1ccccc1

>  <normalized growth>
0.944

$$$$
>  <SMI>
O=S(=O)(Nc1csc(C(F)(F)F)c1-c1ccccc1)c1cc(Br)c(Br)s1

>  <normalized growth>
0.959

$$$$
